Multi-source literature compilation: IC50 on Cytochrome P450 3A4 (Homo sapiens).
Sequence (P08684 whole entry): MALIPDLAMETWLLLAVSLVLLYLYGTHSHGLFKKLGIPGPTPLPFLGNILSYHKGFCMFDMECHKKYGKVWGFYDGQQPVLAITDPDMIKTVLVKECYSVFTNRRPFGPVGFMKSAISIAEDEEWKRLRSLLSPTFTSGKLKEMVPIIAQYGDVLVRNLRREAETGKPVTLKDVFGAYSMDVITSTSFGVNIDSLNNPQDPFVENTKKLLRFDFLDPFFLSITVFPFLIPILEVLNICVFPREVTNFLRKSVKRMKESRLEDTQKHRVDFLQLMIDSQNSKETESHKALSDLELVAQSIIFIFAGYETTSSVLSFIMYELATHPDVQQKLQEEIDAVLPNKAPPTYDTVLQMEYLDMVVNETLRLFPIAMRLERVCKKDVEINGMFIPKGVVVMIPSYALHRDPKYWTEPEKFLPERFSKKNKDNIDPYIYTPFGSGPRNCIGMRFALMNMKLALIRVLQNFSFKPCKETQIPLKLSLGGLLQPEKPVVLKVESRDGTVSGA

Solved cases below.
N#Cc1ccccc1Oc1ccc(C(=O)NCc2ccncn2)cc1
> 10 µM
O=C(Nc1cc2ncncc2cc1OCc1cccc(Cl)c1)Nc1cccc2ccccc12
> 10 µM
COc1cc(CNC(=O)c2cc(-c3nnn(C[C@H]4CO[C@H](CO)CO4)n3)nc(C)n2)ccc1F
> 30 µM
Nc1nc2c(C(=O)NCc3ccccc3)cc(O)c(O)c2s1
< 10 µM
C[C@]1(O)C[C@@H](c2nc(-c3ccc4ccc(-c5ccccc5)nc4c3F)c3c(N)ncnn32)C1
> 25 µM

// each compound listed below needs its IC50
1. N=C(N)NC(=O)c1ccc(C2CCN(C(=O)c3ccc(O)nc3)CC2)c(C(F)(F)F)c1
2. Cc1cc(-c2ccc(NC(=O)Cc3cc(C(F)(F)F)cc(C(F)(F)F)c3)cc2)ccn1

## Output
1: > 30 µM; 2: > 27 µM
